# Tested on: HEP3B2.1.7 human liver cancer cells
# assay.details: CCK-8 in vitro anti-tumor screening, human liver cancer cells
# Format: cell-based
# assay.context: HEP3B cells, 48 h
measured.endpoint: IC50

So for N.N.[Cl][Pt][Cl] [Cisplatin, cisplatin, reference compound] , the logged IC50 turned out to be 8.83 µM

----------
# experimental.target: 2019-nCoV-M^pro protease (Severe acute respiratory syndrome coronavirus 2)
# assay.details: M^pro protease activity inhibition, fluorescence resonance energy transfer method
# Format: biochemical
# assay.context: 30 nM protease, 20 μM substrate, 10 min preincubation at 30° C.; read-out: IC50
measured.endpoint: pIC50
Answers are plain numbers, as −log10 of the molar value.

Record summary for O=c1c(O)c(-c2cc(O)c(O)c(O)c2)oc2c([Se][Se]c3c(O)cc(O)c4c(=O)c(O)c(-c5cc(O)c(O)c(O)c5)oc34)c(O)cc(O)c12 [Dimyricetin-based diselenide] : reported pIC50 = 6.09
